Cited source: paper PMC3395594

# ASSAYED TARGET: E. coli FBPase (fructose-1,6-bisphosphatase) (Escherichia coli, UniProt P0A993, K104Q/R132I)
# Construct: full-length fbp in pET101/D-TOPO, reverse primer without stop (C-terminal vector tag with polyhistidine, no cleavage told), expressed in E. coli BL21 (DE3), Ni-NTA purified
# Sequence (P0A993 whole entry K104Q/R132I): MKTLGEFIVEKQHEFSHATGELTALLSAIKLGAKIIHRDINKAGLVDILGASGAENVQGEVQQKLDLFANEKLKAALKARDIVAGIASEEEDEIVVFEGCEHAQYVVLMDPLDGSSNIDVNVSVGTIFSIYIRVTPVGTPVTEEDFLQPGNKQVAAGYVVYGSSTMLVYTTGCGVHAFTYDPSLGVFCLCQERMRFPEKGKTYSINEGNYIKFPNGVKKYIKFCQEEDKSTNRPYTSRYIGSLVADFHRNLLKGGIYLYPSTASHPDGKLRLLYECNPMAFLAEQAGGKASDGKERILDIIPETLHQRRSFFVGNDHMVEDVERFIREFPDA
# METHOD SUMMARY: malachite green phosphate release assay, fit to nonlinear noncompetitive inhibition
pKi: −log10 of the molar value.

MOLECULE	pKi
Nc1ncnc2c1ncn2[C@@H]1O[C@H](COP(=O)(O)O)[C@@H](O)[C@H]1O [AMP]	2.84

###

# ASSAYED TARGET: E. coli FBPase (fructose-1,6-bisphosphatase) (Escherichia coli, UniProt P0A993, K104Q)
# Construct: full-length fbp in pET101/D-TOPO, reverse primer without stop (C-terminal vector tag with polyhistidine, no cleavage told), expressed in E. coli BL21 (DE3), Ni-NTA purified
# Sequence (P0A993 whole entry K104Q): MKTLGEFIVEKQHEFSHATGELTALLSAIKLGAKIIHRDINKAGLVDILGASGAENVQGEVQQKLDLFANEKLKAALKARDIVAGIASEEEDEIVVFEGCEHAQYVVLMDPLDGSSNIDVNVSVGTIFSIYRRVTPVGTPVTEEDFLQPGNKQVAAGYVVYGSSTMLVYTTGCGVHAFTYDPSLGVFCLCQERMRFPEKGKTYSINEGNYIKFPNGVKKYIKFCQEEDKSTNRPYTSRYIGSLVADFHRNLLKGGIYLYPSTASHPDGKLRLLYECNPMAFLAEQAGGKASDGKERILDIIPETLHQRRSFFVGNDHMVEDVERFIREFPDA
# METHOD SUMMARY: malachite green phosphate release assay, fit to nonlinear noncompetitive inhibition
pKi: −log10 of the molar value.
OBSERVABLE: pKi

MOLECULE	RESULT
Nc1ncnc2c1ncn2[C@@H]1O[C@H](COP(=O)(O)O)[C@@H](O)[C@H]1O [AMP]	3.38

###

# ASSAYED TARGET: E. coli FBPase (fructose-1,6-bisphosphatase) (Escherichia coli, UniProt P0A993, Y210F/K218Q)
# Construct: full-length fbp in pET101/D-TOPO, reverse primer without stop (C-terminal vector tag with polyhistidine, no cleavage told), expressed in E. coli BL21 (DE3), Ni-NTA purified
# Sequence (P0A993 whole entry Y210F/K218Q): as the sequence (P0A993 whole entry K104Q) above, with Q104K, Y210F, K218Q counted along it
# METHOD SUMMARY: malachite green phosphate release assay, fit to nonlinear noncompetitive inhibition
# EXPERIMENTAL CONDITIONS: allosteric Glc-6-P site, with respect to FBP, Mg2+, pH 7.5, 25 C
pKi: −log10 of the molar value.

MOLECULE	pKi
O=P(O)(O)OC[C@H]1OC(O)[C@H](O)[C@@H](O)[C@@H]1O (stereo partly shown)	1.69

###

# ASSAYED TARGET: E. coli FBPase (fructose-1,6-bisphosphatase) (Escherichia coli, UniProt P0A993, Y210F)
# Construct: full-length fbp in pET101/D-TOPO, reverse primer without stop (C-terminal vector tag with polyhistidine, no cleavage told), expressed in E. coli BL21 (DE3), Ni-NTA purified
# Sequence (P0A993 whole entry Y210F): as the sequence (P0A993 whole entry K104Q/R132I) above, with Q104K, I132R, Y210F counted along it
# METHOD SUMMARY: malachite green phosphate release assay, fit to nonlinear noncompetitive inhibition
# EXPERIMENTAL CONDITIONS: allosteric Glc-6-P site, with respect to FBP, Mg2+, pH 7.5, 25 C
pKi: −log10 of the molar value.
OBSERVABLE: pKi

MOLECULE	ASSAYED TARGET	OBSERVABLE	RESULT
O=P(O)(O)OC[C@H]1OC(O)[C@H](O)[C@@H](O)[C@@H]1O (stereo partly shown)	E. coli FBPase (fructose-1,6-bisphosphatase) (Escherichia coli, UniProt P0A993, Y210F)	pKi	1.88

###

# ASSAYED TARGET: E. coli FBPase (fructose-1,6-bisphosphatase) (Escherichia coli, UniProt P0A993, R132I)
# Construct: full-length fbp in pET101/D-TOPO, reverse primer without stop (C-terminal vector tag with polyhistidine, no cleavage told), expressed in E. coli BL21 (DE3), Ni-NTA purified
# Sequence (P0A993 whole entry R132I): as the sequence (P0A993 whole entry K104Q/R132I) above, with Q104K counted along it
# METHOD SUMMARY: malachite green phosphate release assay, fit to nonlinear noncompetitive inhibition
OBSERVABLE: Ki (µM)

SMILES REPRESENTATION	OBSERVABLE	RESULT
Nc1ncnc2c1ncn2[C@@H]1O[C@H](COP(=O)(O)O)[C@@H](O)[C@H]1O	Ki	151

###

# ASSAYED TARGET: E. coli FBPase (fructose-1,6-bisphosphatase) (Escherichia coli, UniProt P0A993, K218Q)
# Construct: full-length fbp in pET101/D-TOPO, reverse primer without stop (C-terminal vector tag with polyhistidine, no cleavage told), expressed in E. coli BL21 (DE3), Ni-NTA purified
# Sequence (P0A993 whole entry K218Q): as the sequence (P0A993 whole entry K104Q/R132I) above, with Q104K, I132R, K218Q counted along it
# METHOD SUMMARY: malachite green phosphate release assay, fit to nonlinear noncompetitive inhibition
# EXPERIMENTAL CONDITIONS: allosteric Glc-6-P site, with respect to FBP, Mg2+, pH 7.5, 25 C
OBSERVABLE: Ki (mM)

COMPOUND	RESULT
O=P(O)(O)OC[C@H]1OC(O)[C@H](O)[C@@H](O)[C@@H]1O (stereo partly shown)	14.1
